TARGET OR TEST SYSTEM: T1, GHRH receptor of human pituitary membranes (human, UniProt Q02643)
T1 sequence: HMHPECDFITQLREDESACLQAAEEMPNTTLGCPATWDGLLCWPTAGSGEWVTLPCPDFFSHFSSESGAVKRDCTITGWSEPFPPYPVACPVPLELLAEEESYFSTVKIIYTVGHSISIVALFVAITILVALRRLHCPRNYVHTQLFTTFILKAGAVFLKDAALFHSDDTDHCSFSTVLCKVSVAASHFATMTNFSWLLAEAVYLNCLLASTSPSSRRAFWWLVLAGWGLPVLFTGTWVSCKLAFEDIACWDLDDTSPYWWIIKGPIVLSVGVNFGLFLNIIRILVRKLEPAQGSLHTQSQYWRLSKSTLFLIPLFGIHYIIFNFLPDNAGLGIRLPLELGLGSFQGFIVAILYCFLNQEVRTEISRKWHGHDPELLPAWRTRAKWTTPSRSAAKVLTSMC
EXPERIMENTAL PROTOCOL: competition vs 125I-[His1,Nle27]hGHRH(1-32)NH2, human pituitary membranes
No end group written: not given here.
ASSAY ENDPOINT: IC50
Enter the number, and then the unit.

Which measured IC50 value corresponds to YADAIFTNSYRKVLGQLSARKLLQDIMSR-NH2 (ligand) [hGHRH(1-29)NH2] ? 5.92 nM

Source listed as patent US20180250358A1.
